For each entry below, report its IC50 value.
Molecular target: Proteasome subunit beta type-10 (Homo sapiens, UniProt P40306)
Sequence (P40306 whole entry): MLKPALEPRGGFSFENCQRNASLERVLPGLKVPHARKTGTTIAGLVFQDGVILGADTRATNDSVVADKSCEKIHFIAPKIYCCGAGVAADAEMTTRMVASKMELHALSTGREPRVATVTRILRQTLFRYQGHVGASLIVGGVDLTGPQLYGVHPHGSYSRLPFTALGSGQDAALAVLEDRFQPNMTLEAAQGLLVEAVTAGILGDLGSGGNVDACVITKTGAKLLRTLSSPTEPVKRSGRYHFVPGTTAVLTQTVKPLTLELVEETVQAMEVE
Assay: Inhibition of human 20s immunoproteasome beta-2i subunit

Input: Entry CC(C)(C)NC(=O)C[C@H](NC(=O)C(=O)c1c[nH]c2ccccc12)C(=O)NCc1cccc(B(O)O)c1 : reported IC50 = ?
Output: > 33.3 µM

Input: Param item: CC(C)(C)NC(=O)CC[C@H](NC(=O)C(=O)c1c[nH]c2ccccc12)C(=O)NCc1cccc(B(O)O)c1
Output: > 33.3 µM

###

System: RPMI-8226
Assay: Synergistic cytotoxic activity against human RPMI-8226 cells after 72 hrs in presence of 0.5 uM of (S)-(3-((2-(2-(1H-indol-3-yl)-2-oxoacetamido)-4-(tert-butylamino)-4-oxobutanamido)methyl)phenyl)boronic acid by celltitre-glo assay
Type: functional, cell-based
PROPERTY LABEL: EC50 (nM)
Just the number in nM, nothing appended.

Input: Entry COC[C@H](NC(=O)[C@H](CCC(=O)NC(C)(C)C)NS(=O)(=O)c1ccc(C)cc1)C(=O)NCc1ccc(F)c2ccccc12 : reported EC50 = ?
Output: 6

###

Molecular target: Proteasome Macropain subunit MB1 (Homo sapiens, UniProt P28074)
Sequence (P28074 whole entry): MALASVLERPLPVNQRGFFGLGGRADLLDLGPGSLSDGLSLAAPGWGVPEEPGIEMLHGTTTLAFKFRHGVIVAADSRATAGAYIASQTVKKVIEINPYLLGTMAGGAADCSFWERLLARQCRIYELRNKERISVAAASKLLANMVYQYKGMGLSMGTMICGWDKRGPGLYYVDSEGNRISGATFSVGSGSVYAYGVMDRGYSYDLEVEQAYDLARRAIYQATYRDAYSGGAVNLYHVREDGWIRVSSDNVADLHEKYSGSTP
Assay: Inhibition of human 20s constitutive proteasome beta-5c
For each entry below, report its pIC50 value.
Bear in mind: pIC50 is minus log10 of a mol/L concentration; give just that figure.

Input: Entry CC(C)(C)NC(=O)C[C@H](NC(=O)C(=O)C1CC1)C(=O)NCc1cccc(B(O)O)c1 : reported pIC50 = ?
Output: 4.62

Input: Param item: CC(C)(C)NC(=O)C[C@H](NC(=O)CCc1ccc(F)cc1)C(=O)NCc1cccc(B(O)O)c1
Output: 6.12

###

System: MM1.S
Experiment: Synergistic cytotoxic activity against human MM1.S cells after 72 hrs in presence of 0.02 uM of (S)-N5-(tert-butyl)-N1-((S)-1-(((4-fluoronaphthalen-1-yl)methyl)amino)-3-methoxy-1-oxopropan-2-yl)-2-((4-methylphenyl)sulfonamido)pentanediamide by celltitre-glo assay
Type: functional, cell-based
PROPERTY LABEL: EC50 (nM)
Just the number in nM, nothing appended.

Input: Entry CC(C)(C)NC(=O)C[C@H](NC(=O)C(=O)c1c[nH]c2ccccc12)C(=O)NCc1cccc(B(O)O)c1 : reported EC50 = ?
Output: 10

###

Target: Proteasome subunit beta type-8 (Homo sapiens)
Sequence (P28062 whole entry): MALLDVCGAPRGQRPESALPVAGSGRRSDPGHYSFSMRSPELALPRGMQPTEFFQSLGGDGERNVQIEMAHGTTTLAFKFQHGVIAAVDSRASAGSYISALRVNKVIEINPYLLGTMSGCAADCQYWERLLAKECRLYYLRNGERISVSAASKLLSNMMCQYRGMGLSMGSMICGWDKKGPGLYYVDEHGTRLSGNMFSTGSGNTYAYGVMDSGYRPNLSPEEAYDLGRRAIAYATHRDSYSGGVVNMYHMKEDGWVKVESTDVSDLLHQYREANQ
Experiment: Inhibition of 20s immunoproteasome beta-5i subunit (unknown origin)
PROPERTY LABEL: IC50

Input: Entry CCCc1ccc(OCC(=O)N(Cc2nc(-c3cccnc3)no2)C(C)C)cc1 : reported IC50 = ?
Output: 2170 nM

Input: Param item: CC(C)C[C@H](NC(=O)CN1CCOCC1)C(=O)N[C@@H](C[C@H]1CC[C@H](C2CCCCC2)CC1)C(=O)N[C@@H](Cc1ccccc1)C(=O)N[C@@H](C)C(=O)[C@@]1(C)CO1
Output: 22800 nM

Input: Param item: COC[C@H](NC(=O)c1cc(C)on1)C(=O)N[C@@H](COC)C(=O)N[C@@H](CC(C)C)C(=O)[C@@]1(C)CO1
Output: 300 nM

###

For each entry below, report its IC50 value.
Biological target: Proteasome Macropain subunit MB1 (Homo sapiens, UniProt P28074)
Experiment: Inhibition of human 20s constitutive proteasome beta-5c
Just the number in nM, nothing appended.

Input: Entry CCCc1ccc(OCC(=O)N(Cc2nc(-c3cccnc3)no2)C(C)C)cc1 : reported IC50 = ?
Output: 5

Input: Param item: CC(C)(C)NC(=O)C[C@H](NC(=O)c1ccccc1)C(=O)NCc1cccc(B(O)O)c1
Output: 3800

Input: Param item: CC(C)(C)NC(=O)C[C@H](NC(=O)C(=O)c1c[nH]c2ccccc12)C(=O)NCc1cccc(B(O)O)c1
Output: 10

Input: Param item: COC[C@H](NC(=O)C(=O)c1c[nH]c2ccccc12)C(=O)NCc1cccc(B(O)O)c1
Output: 3000

Input: Param item: CC(C)(C)NC(=O)C[C@H](NC(=O)Cc1c[nH]c2ccccc12)C(=O)NCc1cccc(B(O)O)c1
Output: 700

Input: Param item: Cc1ccc(S(=O)(=O)N[C@@H](CC(=O)NC(C)(C)C)C(=O)NCc2ccc(B(O)O)o2)cc1
Output: 2600

Input: Param item: CC(C)(C)NC(=O)CC[C@H](NC(=O)C(=O)c1c[nH]c2ccccc12)C(=O)NCc1cccc(B(O)O)c1
Output: 85

Input: Param item: Cc1cc(C(=O)N[C@@H](CC(=O)NC(C)(C)C)C(=O)NCc2cccc(B(O)O)c2)no1
Output: 5900

Input: Param item: Cc1ccc(S(=O)(=O)N[C@@H](CC(=O)NC(C)(C)C)C(=O)NCc2cccc(B(O)O)c2)cc1
Output: 210

Input: Param item: CC(C)(C)NC(=O)C[C@H](NC(=O)C(=O)c1ccccc1)C(=O)NCc1cccc(B(O)O)c1
Output: 240

Input: Param item: CC(C)(C)NC(=O)C[C@H](NC(=O)c1cc(Cl)ccc1Cl)C(=O)NCc1cccc(B(O)O)c1
Output: 1400
